Measured Target: AgORco+AgOR48 (Anopheles gambiae)
Construct: expressed in transfected cells
Sequence (Q7QCC7 whole entry): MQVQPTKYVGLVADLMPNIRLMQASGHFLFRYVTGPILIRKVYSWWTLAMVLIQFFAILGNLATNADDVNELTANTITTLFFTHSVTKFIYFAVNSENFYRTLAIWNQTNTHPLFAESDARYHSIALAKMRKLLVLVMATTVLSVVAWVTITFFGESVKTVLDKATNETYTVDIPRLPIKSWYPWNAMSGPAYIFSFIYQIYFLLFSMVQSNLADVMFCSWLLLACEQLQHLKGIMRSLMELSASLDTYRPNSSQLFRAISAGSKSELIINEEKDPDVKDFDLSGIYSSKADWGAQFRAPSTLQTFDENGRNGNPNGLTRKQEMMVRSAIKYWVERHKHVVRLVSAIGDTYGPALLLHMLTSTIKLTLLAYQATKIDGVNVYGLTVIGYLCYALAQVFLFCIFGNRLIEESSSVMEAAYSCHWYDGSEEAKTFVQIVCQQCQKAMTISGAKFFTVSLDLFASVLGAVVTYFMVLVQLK
Assay Method Text: Ca2+ imaging, HEK cells expressing AgORco+AgOR48
Assay type: cell-based
Particulars: Orco + 48, agonist; relative to VUAA1
Readout Label: Orco + 48 Agonist % value Of VUAA1

Req: For the compound shown here, "C=Cc1ccc(NC(=O)CSc2nnc(-c3ccncc3)n2C2CC2)cc1" , give the reported Orco + 48 Agonist % value Of VUAA1.
Resp: <VUAA1

Req: Okay, and "CCn1c(SCC(=O)Nc2ccc(C(C)C)cc2)nnc1-c1cc[nH]c1" ?
Resp: Poor

Req: Okay, and "O=C(CSc1nnc(-c2ccncc2)n1C1CC1)Nc1ccc(Br)cc1F" ?
Resp: <VUAA1

Req: Okay, and CC(C)c1ccc(NC(=O)CSc2nnc(-c3ccncc3)n2C2CC2)cc1 [drawing 634] ?
Resp: 122%

Req: Okay, and "CCCc1ccc(NC(=O)CSc2nnc(-c3ccncc3)n2C2CC2)cc1" ?
Resp: <VUAA1

Kindly consider the entry below.
Req: For the compound shown here, "C=CCn1c(SCC(=O)Nc2ccc(C(C)C)cc2)nnc1-c1ccncc1" , give the reported Orco + 48 Agonist % value Of VUAA1.
Resp: <VUAA1

###

Measured Target: AgORco+AgOR48 (Anopheles gambiae)
Construct: expressed in transfected cells
Assay Method Text: Ca2+ imaging, HEK cells expressing AgORco+AgOR48
Format: cell-based
Particulars: Orco + 48; relative to VUAA1
Readout Label: Orco + 48 Agonist % value Of VUAA1

For orientation, consider the following solved cases.
Req: Record lookup: for AgORco+AgOR48 (Anopheles gambiae), what Orco + 48 Agonist % value Of VUAA1 belongs to "CCn1c(SCC(=O)Nc2ccc(C(C)C)cc2)nnc1-c1ccncc1" ?
Resp: 112%

Req: Okay, and "CCc1ccc(NC(=O)CSc2nnc(-c3ccncc3)n2CC)cc1" ?
Resp: <VUAA1

Req: Okay, and "CCn1c(SCC(=O)Nc2ccc(C(C)C)cc2)nnc1-c1ccnc(F)c1" ?
Resp: 62%

Req: Okay, and CCn1c(SCC(=O)Nc2ccc(C(C)C)cc2)nnc1-c1cccnc1 [drawing 381] ?
Resp: 109%

Req: Okay, and "CCCc1ccc(NC(=O)CSc2nnc(-c3ccncc3)n2CC)cc1" ?
Resp: <VUAA1

More entries:
Req: Record lookup: for AgORco+AgOR48 (Anopheles gambiae), what Orco + 48 Agonist % value Of VUAA1 belongs to "C=Cc1ccc(NC(=O)CSc2nnc(-c3ccncc3)n2CC)cc1" ?
Resp: <VUAA1

Req: Okay, and C=Cc1ccc(NC(=O)CSc2nnc(-c3cccnc3)n2CC)cc1 [drawing 376] ?
Resp: 77%

Req: Okay, and "CCn1c(SCC(=O)Nc2ccc(Br)cc2F)nnc1-c1ccncc1" ?
Resp: <VUAA1

Req: Okay, and CCc1ccc(NC(=O)CSc2nnc(-c3cccnc3)n2CC)cc1 [drawing 373] ?
Resp: 100%

###

Measured Target: AgORco+AgOR10 (Anopheles gambiae)
Construct: expressed in transfected cells
Sequence (Q7QCC7 whole entry): as above
Assay Method Text: Fluo-4 Ca2+ imaging, HEK293 cells expressing Orco+AgOR10
Type: cell-based
Particulars: 10 + Orco; agonist mode; qualitative, relative to VUAA1
Readout Label: Orco 10 + Orco Agonist, compared with VUAA1

For orientation, consider the following solved cases.
Req: Record lookup: for AgORco+AgOR10 (Anopheles gambiae), what Orco 10 + Orco Agonist, compared with VUAA1 belongs to "CCCc1ccc(NC(=O)CSc2nnc(-c3cccnc3)n2CC)cc1" ?
Resp: <VUAA1

Req: Okay, and CCn1c(SCC(=O)Nc2ccc(C(C)C)cc2)nnc1-c1cccnc1 [drawing 381] ?
Resp: >VUAA1

Req: Okay, and "CCn1c(SCC(=O)N2CCc3cc(Br)ccc32)nnc1-c1cccnc1" ?
Resp: >VUAA1

Req: Okay, and "CCc1ccc2c(c1)CCN2C(=O)CSc1nnc(-c2cccnc2)n1CC" ?
Resp: >VUAA1

Req: Okay, and C=Cc1ccc(NC(=O)CSc2nnc(-c3cccnc3)n2CC)cc1 [drawing 376] ?
Resp: <VUAA1

Kindly consider the entry below.
Req: Record lookup: for AgORco+AgOR10 (Anopheles gambiae), what Orco 10 + Orco Agonist, compared with VUAA1 belongs to "CCn1c(SCC(=O)Nc2ccc(Br)cc2F)nnc1-c1cccnc1" ?
Resp: <VUAA1
